# System: Fuc(a1-2)[Gal(a1-3)]Gal(b1-4)GlcNAc
# Method Notes: glycan array binding signal (z-score within array); higher = stronger binding
# Condition Set: glycan notation: IUPAC condensed, linker removed
The entries come from a sample that favours the strongest signals as a whole.
Consider the following binders; for each one, report its glycan array binding signal (z-score).

Query string: Provide one value: measured glycan array binding signal (z-score) of IRP60A (Homo sapiens), Q9UGN4 (protein) MWLPWALLLLWVPGCFALSKCRTVAGPVGGSLSVQCPYEKEHRTLNKYWCRPPQIFLCDKIVETKGSAGKRNGRVSIRDSPANLSFTVTLENLTEEDAGTYWCGVDTPWLRDFHDPVVEVEVSVFPASTSMTPASITAAKTSTITTAFPPVSSTTLFAVGATHSASIQEETEEVVNSQLPLLLSLLALLLLLLVGASLLAWRMFQKWIKAGDHSELSQNPKQAATQSELHYANLELLMWPLQEKPAPPREVEVEYSTVASPREELHYASVVFDSNTNRIAAQRPREEEPDSDYSVIRKT
Result string: -0.266

Query string: Provide one value: measured glycan array binding signal (z-score) of Codakine (Codakia orbicularis), Q3KVL7_9BIVA (protein) MKILVAVFLVLVVVGTAAAGCPDGWTQFLDLCYIYQSAKASWASAQSSCQALGGILAEPDTACENEVLIHMCRENGDAGSFGPWLGGQKVGGAWQWSSSGAAFDYLRWGPNEPNNSGGNEDCLHYNWLSWNDLRCHYQASYLCQRAAE
Result string: -0.342

Query string: Provide one value: measured glycan array binding signal (z-score) of Mermaid3 (Stilbonema majum) (protein) MGSSHHHHHHSSGLVPRGSHMAASGWLRSPQGTVVKLYRRSLSWSKADEFCKDVDGRLVVDRTADMHLFLIKNVLKEKKSRVWVGLRRTASHSRTWIWSDGTRQNEGDLDANLWLRDEPNDAAGEEECALFMYSPWEKAWGLNDYLCRGGCRNYQFICEKWIR
Result string: -0.174

Query string: Provide one value: measured glycan array binding signal (z-score) of Calsepa (Calystegia sepium), P93114 (protein) MAVPMDTISGPWGNNGGNFWSFRPVNKINQIVISYGGGGNNPIALTFSSTKADGSKDTITVGGGGPDSITGTEMVNIGTDEYLTGISGTFGIYLDNNVLRSITFTTNLKAHGPYGQKVGTPFSSANVVGNEIVGFLGRSGYYVDAIGTYNRHK
Result string: -0.249

Query string: Provide one value: measured glycan array binding signal (z-score) of Gal 2 (Homo sapiens), P05162 (protein) MTGELEVKNMDMKPGSTLKITGSIADGTDGFVINLGQGTDKLNLHFNPRFSESTIVCNSLDGSNWGQEQREDHLCFSPGSEVKFTVTFESDKFKVKLPDGHELTFPNRLGHSHLSYLSVRGGFNMSSFKLKE
Result string: 2.52

Provenance of the data: the supplement of paper PMC8728848
